# ASSAYED TARGET: Recombinant Human Siglec-3/CD33 protein (His-CD33) (Homo sapiens (Human), UniProt P20138)
# Sequence (P20138 18-259): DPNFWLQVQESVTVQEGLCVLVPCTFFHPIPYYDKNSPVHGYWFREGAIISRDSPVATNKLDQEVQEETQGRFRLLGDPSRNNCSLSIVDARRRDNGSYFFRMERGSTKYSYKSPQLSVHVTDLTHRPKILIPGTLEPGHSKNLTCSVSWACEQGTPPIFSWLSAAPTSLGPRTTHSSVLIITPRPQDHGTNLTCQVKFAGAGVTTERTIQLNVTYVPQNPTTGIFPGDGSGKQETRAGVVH
# PROCEDURE SUMMARY: Differential scanning fluorimetry (DSF) thermal shift assay
# Type: binding
# DETAILS: difference in thermal melt of CD33 protein (0.5 μM) with 50 μM compound
MEASURED PROPERTY: DSF (dTmD) (°C)

A. CC(=O)N[C@H]1[C@H]([C@H](O)[C@H](O)CNC(=O)c2cc(C)c(O)c(C)c2)O[C@@](C/C=C/c2cccc(CNC(=O)c3cccc(NCc4nc(C)cs4)c3)c2)(C(=O)O)C[C@@H]1O
B. Cc1cc(C(=O)NC[C@@H](O)[C@@H](O)[C@@H]2O[C@@](OC3CCCCC3NC(=O)Cn3cc(CNC(=O)c4cccc(C#N)c4)nn3)(C(=O)O)C[C@H](O)[C@H]2NC(=O)Cn2cc(C3CCCCC3)nn2)cc(C)c1O (some centres unmarked)
From the recorded data, which exceeds the other in DSF (dTmD): A or B ? Write the label of whichever entry you select.
B
(B: 5.0 °C, A: 1.2 °C)

Attribution: patent US20250313574A1
